# test-protocol: self-splicing fitness, log relative to wild type (ln ratio); higher = more splicing; Tetrahymena group I intron in knt gene, E. coli kanamycin selection, DiMSum; sequences stand for … in CUCUCU…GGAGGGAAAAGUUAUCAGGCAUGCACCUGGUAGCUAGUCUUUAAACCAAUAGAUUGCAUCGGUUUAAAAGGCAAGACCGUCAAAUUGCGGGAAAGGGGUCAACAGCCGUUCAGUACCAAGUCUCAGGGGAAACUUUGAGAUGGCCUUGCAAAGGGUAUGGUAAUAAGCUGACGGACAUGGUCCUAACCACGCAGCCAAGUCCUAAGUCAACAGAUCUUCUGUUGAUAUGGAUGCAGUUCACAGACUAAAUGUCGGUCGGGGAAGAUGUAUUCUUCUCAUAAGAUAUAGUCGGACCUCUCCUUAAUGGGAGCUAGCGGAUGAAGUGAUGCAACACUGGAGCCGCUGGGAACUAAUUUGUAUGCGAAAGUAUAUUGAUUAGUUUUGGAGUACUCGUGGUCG;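 further: selection with 25 µg/mL kanamycin versus none on LB agar overnight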
# test-parameters: 30 °C
Record Fulfilled whenever self-splicing fitness (ln) is at -2 or higher; record Not fulfilled when lower.

Look over these answered cases.
Form field: self-splicing fitness (ln) at least -2? Entry: "UCCCAGCAAUAUUACGCGCA"
Fulfilled

Evaluate "GAAAAGCAAUAUUACGGUUC" : self-splicing fitness (ln) at minimum -2?
Not fulfilled

Given "UCCAAGCAAUAUUACGGAAG" , state whether its self-splicing fitness (ln) is at least -2.
Fulfilled

Others:
API: above_or_equal(metric=self-splicing fitness (ln), cutoff=-2) for item "GCCUAGCAAUAUUACGACGA"
Fulfilled

Test whether the sequence "UAGCAGCAAUAUUACGCACG" records self-splicing fitness (ln) of -2 or higher.
Fulfilled

Does "CAAUAGCAAUAUUACGCGAG" have a reported self-splicing fitness (ln) of at least -2?
Fulfilled

Does self-splicing fitness (ln) meet or surpass -2 for "UAUAAGCAAUAUUACGGAAU" ?
Not fulfilled

Can "UAGGAGCAAUAUUACGAAAA" be said to have self-splicing fitness (ln) at or above -2?
Not fulfilled

Reported self-splicing fitness (ln) at or above -2? "CUAGAGCAAUAUUACGCGCU"
Not fulfilled

Exam item: decide whether the reported self-splicing fitness (ln) for "GCACAGCAAUAUUACGUCCU" is at least -2.
Fulfilled

Tell me whether self-splicing fitness (ln) is at least -2 here: "CUUAAGCAAUAUUACGUCAG"
Fulfilled

Quick check: does "ACACAGCAAUAUUACGGUUA" have self-splicing fitness (ln) greater than or equal to -2?
Fulfilled

Say whether "AUCGAGCAAUAUUACGUCGC" shows self-splicing fitness (ln) of -2 or more.
Not fulfilled

Please indicate if the recorded self-splicing fitness (ln) for "AAGUAGCAAUAUUACGGAUG" meets or exceeds -2.
Not fulfilled

# check: self-splicing fitness (ln) of "AGAUAGCAAUAUUACGCUUC" is greater than or equal to -2
Not fulfilled

For this sequence, is measured self-splicing fitness (ln) -2 or higher? "UGUGAGCAAUAUUACGGUUG"
Not fulfilled

Answer whether self-splicing fitness (ln) of "AGCCAGCAAUAUUACGGAGA" is greater than or equal to -2.
Not fulfilled
